Please go through the items and note down their cell killing Span, RPMI-6666 (HL) cells.
Molecular target: CD74 (human), P04233
Sequence (P04233 whole entry): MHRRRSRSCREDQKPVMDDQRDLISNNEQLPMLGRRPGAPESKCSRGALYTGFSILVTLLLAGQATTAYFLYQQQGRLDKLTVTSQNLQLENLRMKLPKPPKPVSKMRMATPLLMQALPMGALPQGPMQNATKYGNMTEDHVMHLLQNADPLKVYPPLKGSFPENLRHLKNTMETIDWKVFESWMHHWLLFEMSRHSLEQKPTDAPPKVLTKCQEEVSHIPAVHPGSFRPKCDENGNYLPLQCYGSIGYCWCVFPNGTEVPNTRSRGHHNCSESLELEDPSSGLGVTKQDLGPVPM
Assay: cell-based or functional assay
State the result as a value with its unit after it.

Q) Please report the recorded cell killing Span, RPMI-6666 (HL) cells for Conjugate A (anti-CD74 IgG-DBCO-PEG4-maytansine conjugate) (antibody, V domains shown, here or on the partner: para-azidomethyl-L-phenylalanine (pAMF, residue 30) at heavy chain EU position 404 (constant region, outside SEQ ID NO 236), linked to DBCO-PEG4-maytansine) VH: QVQLVESGGGVVQPGRSLRLSCAASGFNFSDYGMHWVRQAPGKGLEWVAVIWYDGSISYYADSVKGRFTISRDNSKNTLYLQMNSLRAEDTAVYYCARGGTVEHGAVYGTDVWGQGTTVTVSS VL: DIQMTQSPSSVSASVGDRVTITCRASQGIGSWLAWYQQKPGKAPKLLIYAADRLQSGVPSRFSGSGSGTDFTLTISSLQPEDFATYYCQQYHTYPLTFGGGTKVEIK .
A) 85%

Q) For Conjugate B (anti-CD74 IgG-PEG4-maytansine conjugate) (antibody, V domains shown, here or on the partner: modified amino acid residue 30 (pAMF) according to Example 2, position not stated for this conjugate, linked to a PEG4-maytansine linker-payload) VH: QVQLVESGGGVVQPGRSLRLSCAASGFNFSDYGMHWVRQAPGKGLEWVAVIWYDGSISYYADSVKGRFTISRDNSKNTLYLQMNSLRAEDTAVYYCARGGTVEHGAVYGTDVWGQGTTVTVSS VL: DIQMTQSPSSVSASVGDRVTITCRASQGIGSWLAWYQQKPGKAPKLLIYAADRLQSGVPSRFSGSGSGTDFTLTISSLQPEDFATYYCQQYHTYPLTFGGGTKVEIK , what is its reported cell killing Span, RPMI-6666 (HL) cells?
A) 89%

Q) // cell killing Span, RPMI-6666 (HL) cells lookup, key: Conjugate C (anti-CD74 IgG-val-cit-PAB-hemiasterlin conjugate) (antibody, V domains shown, here or on the partner: modified amino acid residue 30 (pAMF) according to Example 2, position not stated for this conjugate, linked to val-cit-PAB-hemiasterlin) VH: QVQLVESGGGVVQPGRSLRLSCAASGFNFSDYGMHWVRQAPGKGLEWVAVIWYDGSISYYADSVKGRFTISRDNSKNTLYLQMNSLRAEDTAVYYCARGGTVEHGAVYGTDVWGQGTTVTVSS VL: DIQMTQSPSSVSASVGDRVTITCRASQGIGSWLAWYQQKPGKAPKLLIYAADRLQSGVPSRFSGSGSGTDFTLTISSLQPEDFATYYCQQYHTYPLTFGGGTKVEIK
A) 84%
